Test system: PC-3 prostate
Assay: NCI tumour cell line growth inhibition, 48 h
TGI reference
Give just the number in µM; leave the unit off.

The value of TGI measured for the molecule O=C(O)c1c(=O)cccc2ssc12 turned out to be 3.58

The value of TGI measured for the molecule Cc1ccc(C(=O)/C(=C\c2ccc([N+](=O)[O-])cc2)S(=O)Cc2ccc(Cl)cc2)cc1 (stereo not given) turned out to be 3.12

The value of TGI measured for the molecule O=C1C=CC(=O)c2c(O)c(Br)c(Br)c(O)c21 turned out to be 29.6

Let us examine a further case.
The value of TGI measured for the molecule O=C(N/N=C/c1ccc(O)cc1O)c1cccc(Nc2ccnc(C(F)(F)F)c2)c1 turned out to be 34.2

* * *

System: CCRF-CEM leukemia
Experiment: NCI tumour cell line growth inhibition, 48 h; in the data active = GI50 below about 0.43 µM; inactive = the rest
Returns: one label drawn from TRUE for active, FALSE for inactive

Example entries begin here.
Please indicate how the test categorized CCc1ccc(C(=Nc2ccc(N(C)C(=O)CN3CCN(C)CC3)cc2)c2c(O)[nH]c3ccc(C(=O)OC)cc23)cc1 .
TRUE

Please indicate how the test categorized COc1cc2nccc(Oc3ccc(NC(=O)Nc4cc(C)on4)c(Cl)c3)c2cc1OC .
FALSE

Please indicate how the test categorized CC(CN(C)C)Oc1ccccc1NC1=C(Cl)C(=O)C(Nc2ccccc2OC(C)CN(C)C)=C(Cl)C1=O (stereo not given) .
TRUE

Please indicate how the test categorized N#Cc1cc(S(=O)(=O)Nc2nnc(-c3ccccc3)c(-c3ccccc3)n2)c(SCc2ccccc2)cc1Cl .
FALSE

Please indicate how the test categorized CCCCCCCCCNC(=O)/C=C/c1ccc(O)c(O)c1 .
TRUE

Please indicate how the test categorized O=C1/C(=C/c2ccc(Cl)cc2)CCC/C1=C\c1ccc(Cl)cc1 .
FALSE

Please indicate how the test categorized COc1ccc2c(c1)C(=O)/C(=C/c1ccc([N+](=O)[O-])o1)O2 .
FALSE

Please indicate how the test categorized O=C(Nc1cccc(-c2ccc(Cl)c(C(F)(F)F)c2)c1)C1CCN(Cc2cccc3cccnc23)CC1 .
FALSE

Please indicate how the test categorized [N-]=[N+]=NCCCn1c2c(c3ccc([N+](=O)[O-])cc3c1=O)C(=O)c1cc(F)ccc1-2 .
FALSE

Please indicate how the test categorized CC(=O)O[C@H](C[C@H](C(C)C)N(C)C(=O)[C@@H](NC(=O)[C@H]1CCCN1C)C(C)C)c1nc(C(=O)N[C@@H](Cc2ccccc2)C[C@H](C)C(=O)O)c(C)s1 .
TRUE

Next:
Please indicate how the test categorized CC(=O)[CH-]C(=O)c1ccccc1.CC(=O)[CH-]C(=O)c1ccccc1.Cc1cc([O-])ccc1Cl.Cc1cc([O-])ccc1Cl.[Ti+4] .
FALSE

Please indicate how the test categorized N#C/C(=C\c1ccc(Br)cc1)n1nnc2cc(Cl)c(Cl)cc21 .
FALSE

Please indicate how the test categorized Oc1ccc(C2c3ccccc3Oc3ccccc32)c2cccnc12 .
FALSE

Please indicate how the test categorized Cc1ccc(C(=O)/C(=C\c2ccc([N+](=O)[O-])cc2)S(=O)Cc2ccc(Cl)cc2)cc1 (stereo not given) .
FALSE

Please indicate how the test categorized O=C(N/N=C/c1ccc(O)cc1O)c1cccc(Nc2ccnc(C(F)(F)F)c2)c1 .
TRUE

* * *

Test system: HOP-62 NSCLC
Assay: NCI tumour cell line growth inhibition, 48 h
TGI reference

The value of TGI measured for the compound CSc1nc2c(c(N3CCOCC3)n1)C(O)n1c(nc3ccccc31)S2 (stereo not given) turned out to be > 100 µM

The value of TGI measured for the compound Cc1ccc(NC(=O)CSc2nnc3n(Cc4ccccc4)c(=O)c4c(C)c(C(N)=O)sc4n23)cc1 turned out to be 56 µM

The value of TGI measured for the compound CC(=O)OC[C@@]12Cc3ccc(C)c(O)c3[C@]1(C)[C@@H](OC(C)=O)[C@]1(O)[C@H]([C@@H](OC(=O)c3ccccc3)[C@@H](C)[C@H]1OC(C)=O)[C@H]2OC(C)=O turned out to be > 50 µM

The value of TGI measured for the compound COc1cc2c(cc1O)C1(Cc3ccc4c(c3C1=O)OCO4)N(C)CC2 (stereo not given) turned out to be > 100 µM

The value of TGI measured for the compound Nc1n[n+](-c2ccccc2)no1 turned out to be > 100 µM

* * *

TGI reference
System: OVCAR-4 ovarian
Experiment: NCI tumour cell line growth inhibition, 48 h

The value of TGI measured for the molecule O=C1/C(=C/c2ccc(Oc3ccccc3)cc2)N=C(c2ccccc2)N1c1ccc(S(=O)(=O)Nc2nccs2)cc1 turned out to be > 100 µM

The value of TGI measured for the molecule COc1ccc(N=NC(=Nc2ccc(Cl)cc2)c2ccc(N(CCC#N)CCC#N)cc2)cc1 turned out to be > 100 µM

The value of TGI measured for the molecule O=C(O/N=C1/CCC/C1=C\c1ccccc1)c1ccc(Cl)c(Cl)c1 turned out to be > 100 µM

The value of TGI measured for the molecule CCCCCCCCCCCCCCCCOP(=O)(O)OCC(NC(C)=O)C(=O)O (centres undefined) turned out to be 60.7 µM

The value of TGI measured for the molecule [N-]=[N+]=NCCCn1c2c(c3ccc([N+](=O)[O-])cc3c1=O)C(=O)c1cc(F)ccc1-2 turned out to be > 95.7 µM

The value of TGI measured for the molecule NC1=NN(c2ccccc2)C(=O)C1C(=O)C(=O)Nc1nccs1 (centres undefined) turned out to be > 100 µM

The value of TGI measured for the molecule COc1cc2nccc(Oc3ccc(NC(=O)Nc4cc(C)on4)c(Cl)c3)c2cc1OC turned out to be > 65.2 µM

The value of TGI measured for the molecule ONC1=Nc2ccccc2C(=S)N2CSCC12 (centres undefined) turned out to be > 100 µM

The value of TGI measured for the molecule Cc1ccc(C2COc3cc(O)c(O)cc3C2)cc1 (centres undefined) turned out to be 62 µM

The value of TGI measured for the molecule O=C1OC(=O)C2CCCC3CCCC1C32 (centres undefined) turned out to be > 100 µM

Next:
The value of TGI measured for the molecule CO/N=C(\COc1ccc2oc(-c3ccccc3)cc(=O)c2c1)c1ccc(OC)cc1 turned out to be 73.9 µM

* * *

Test system: DU-145 prostate
Assay: NCI tumour cell line growth inhibition, 48 h; in the data active means GI50 below about 0.43 µM; inactive means the rest
Returns: one label drawn from Y = active, N = inactive

Example entries begin here.
Please indicate how the test categorized CCC(=O)Nc1ccc(C)c(-c2ccc(C(=O)NCC3CC3)cc2)c1 .
N

Please indicate how the test categorized CC(=O)O[C@H](C[C@H](C(C)C)N(C)C(=O)[C@@H](NC(=O)[C@H]1CCCN1C)C(C)C)c1nc(C(=O)N[C@@H](Cc2ccccc2)C[C@H](C)C(=O)O)c(C)s1 .
Y

Next:
Please indicate how the test categorized CN(CC(=O)Nc1nc2ccccc2[nH]1)S(=O)(=O)c1ccc(Cl)cc1 .
N

Please indicate how the test categorized Cc1cn2c(/C=N/N=C(N)N)c(-c3ccccn3)nc2s1 .
N

Please indicate how the test categorized CC(=[N-])N1CCC[C@@H](Nc2c3ccccc3nc3ccccc23)C1.[Cl][Pt].[NH-]CCC[NH-] .
Y

Please indicate how the test categorized C/C(O)=C(\C#N)C(=O)Nc1ccc(C(F)(F)F)cc1 .
N

Please indicate how the test categorized Oc1c(Cl)cc(Cl)cc1C(c1cc(Cl)cc(Cl)c1O)C(Cl)(Cl)Cl .
N

Please indicate how the test categorized O=[N+]([O-])c1cc(C(F)(F)F)ccc1Sc1ccc(C(F)(F)F)cc1[N+](=O)[O-] .
N

Please indicate how the test categorized CCn1c(-c2nonc2N)nc2c(C#CC(C)(C)O)ncc(OC[C@H]3CCCNC3)c21 .
N

Please indicate how the test categorized COc1cc(-c2csc(NC(=O)Nc3ccc(C(F)(F)F)cc3)n2)cc(OC)c1OC .
N

Please indicate how the test categorized COC(=O)c1cc2c3ccccc3[nH]c2c2sccc12 .
N

Please indicate how the test categorized NS(=O)(=O)CC1CC[CH-]CC1.[Cl-].[Cl-].[Cl-].[Cl-].[Cl-].[Sb+5].c1ccncc1 .
N

Please indicate how the test categorized O=C(Nc1cccc(-c2ccc(Cl)c(C(F)(F)F)c2)c1)C1CCN(Cc2cccc3cccnc23)CC1 .
N

* * *

System: HL-60(TB) leukemia
Assay: NCI tumour cell line growth inhibition, 48 h
TGI reference

Log: HL-60(TB) leukemia, molecule O=C(CCc1ccccc1)n1cccc1CO , TGI = > 100 µM

Log: HL-60(TB) leukemia, molecule C[C@]12CC[C@@H]3c4ccc(O)cc4CC[C@H]3[C@@H]1CC[C@@H]2OC(=O)CCc1ccccc1 , TGI = 43.9 µM

Log: HL-60(TB) leukemia, molecule COc1ccc(/C=C2\CCC(CCN(C)C)(C3=CCCC3)C2=O)cc1Br (stereo unspecified) , TGI = 4.63 µM

Log: HL-60(TB) leukemia, molecule COc1cccc(Nc2nc(N)nc(N)c2N)c1 , TGI = > 100 µM

Next:
Log: HL-60(TB) leukemia, molecule COC(=O)C1=C(C)NC(C)=C(C(=O)OC)C1c1ccc(N=O)cc1 , TGI = > 100 µM

Log: HL-60(TB) leukemia, molecule COC(=O)C(COC(=O)/C=C/c1ccc(OC(C)=O)c(OC(C)=O)c1)NC(=O)/C=C/c1ccc(OC(C)=O)c(OC(C)=O)c1 (stereo unspecified) , TGI = > 100 µM
